Reported CC50 at 48 h values follow for various molecules
- PROTOCOL: CCK-8 assay for cytotoxicity
- Type: cell-based, human
- CONDITION: human, HepG2 cells; HepG2 cell viability, 48 h; read-out: CC50

MOLECULE	CC50 at 48 h
CC[C@H]1OC(=O)[C@H](C)[C@@H](OC(=O)NCCCOCCC#Cc2ccc3c(=O)c(C(=O)O)cn(C)c3c2)[C@H](C)[C@@H](O[C@@H]2O[C@H](C)C[C@H](N(C)C)[C@H]2O)[C@](C)(OC)C[C@@H](C)C(=O)[C@H](C)[C@H]2NC(=O)O[C@@]21C [MCX-190]	> 200 µM

Please find the next molecule below.
Field CC50 at 48 h (entry CC[C@H]1OC(=O)[C@H](C)[C@@H](OC(=O)NCCCCCCC#Cc2ccc3c(=O)c(C(=O)O)cn(C)c3c2)[C@H](C)[C@@H](O[C@@H]2O[C@H](C)C[C@H](N(C)C)[C@H]2O)[C@](C)(OC)C[C@@H](C)C(=O)[C@H](C)[C@H]2NC(=O)O[C@@]21C [MCX-219] ) reads 28.9 µM

* * *

- System: S. aureus
- PROTOCOL: MIC, broth microdilution
- Assay type: cell-based, Staphylococcus aureus
- CONDITION: S. aureus 15B196, c-ermB
MEASURED_ATTRIBUTE: MIC
Just the number plus its unit, please.

MOLECULE	TEST_TARGET	MEASURED_ATTRIBUTE	ASSAY_VALUE
CC[C@H]1OC(=O)[C@H](C)[C@@H](OC(=O)NCCCCCCC#Cc2ccc3c(c2)c(=O)c(C(=O)O)cn3C2CC2)[C@H](C)[C@@H](O[C@@H]2O[C@H](C)C[C@H](N(C)C)[C@H]2O)[C@](C)(O)C[C@@H](C)CN(C)[C@H](C)[C@H]2OC(=O)O[C@@]21C [111a]	S. aureus	MIC	128 µg/mL
CC[C@H]1OC(=O)[C@H](C)[C@@H](OC(=O)NCCCCCCC#Cc2ccc3c(=O)c(C(=O)O)cn(C4CC4)c3c2)[C@H](C)[C@@H](O[C@@H]2O[C@H](C)C[C@H](N(C)C)[C@H]2O)[C@](C)(OC)C[C@@H](C)C(=NOC)[C@H](C)[C@H]2OC(=O)O[C@@]21C [58c]	S. aureus	MIC	64 µg/mL
CC[C@H]1OC(=O)[C@H](C)[C@@H](OC(=O)NCCCCCCC#Cc2ccc3c(=O)c(C(=O)O)cn(C4CC4)c3c2)[C@H](C)[C@@H](O[C@@H]2O[C@H](C)C[C@H](N(C)C)[C@H]2O)[C@](C)(OC)C[C@@H](C)C(=O)[C@H](C)[C@H]2NC(=O)O[C@@]21C [88c]	S. aureus	MIC	4 µg/mL

Field MIC (entry CC[C@H]1OC(=O)[C@H](C)[C@@H](O[C@H]2C[C@@](C)(OC)[C@@H](O)[C@H](C)O2)[C@H](C)[C@@H](O[C@@H]2O[C@H](C)C[C@H](N(C)C)[C@H]2O)[C@](C)(OC)C[C@@H](C)C(=O)[C@H](C)[C@@H](O)[C@]1(C)O [clarithromycin, reference compound] ) reads 512 µg/mL

* * *

Reported MIC values follow for various compounds
- Test system: S. aureus
- PROTOCOL: MIC, broth microdilution
- Assay type: cell-based, Staphylococcus aureus
- CONDITION: Staphylococcus aureus, S. aureus PU32, i-ermA; read-out: MIC
Give your result in µg/mL as a bare value.

COMPOUND	MIC, µg/mL
CCC1OC(=O)C(C)C(OC(=O)NCCCCCC#Cc2ccc3c(c2)c(=O)c(C(=O)O)cn3C2CC2)C(C)C(OC2OC(C)CC(N(C)C)C2O)C(C)(OC)CC(C)C(=NOC)C(C)C2OC(=O)OC12C (centres unmarked) [57a]	16

Please find the next compound below.
Field MIC (entry CC[C@H]1OC(=O)[C@H](C)[C@@H](OC(=O)NCCCCCCC#Cc2ccc3c(=O)c(C(=O)O)cn(C)c3c2)[C@H](C)[C@@H](O[C@@H]2O[C@H](C)C[C@H](N(C)C)[C@H]2O)[C@](C)(OC)C[C@@H](C)NC(=O)[C@H](C)[C@@H](O)[C@]1(C)O [126g] ) reads 2

* * *

- System: M. catarrhalis
- PROTOCOL: MIC, broth microdilution
- Format: cell-based, Moraxella catarrhalis
- CONDITION: Moraxella catarrhalis; M. catarrhalis 13L332, Ery-S; read-out: MIC
MEASURED_ATTRIBUTE: MIC (µg/mL)
Give your result in µg/mL as a bare value.

Field MIC (entry CC[C@H]1OC(=O)[C@H](C)[C@@H](OC(=O)NCCCCCCCC#Cc2ccc3c(=O)c(C(=O)O)cn(C)c3c2)[C@H](C)[C@@H](O[C@@H]2O[C@H](C)C[C@H](N(C)C)[C@H]2O)[C@](C)(OC)C[C@@H](C)C(=O)[C@H](C)[C@H]2NC(=O)O[C@@]21C [89g] ) reads 1

Field MIC (entry CC[C@H]1OC(=O)[C@H](C)[C@@H](OC(=O)NCCCOCCC#Cc2ccc3c(=O)c(C(=O)O)cn(C4CC4)c3c2)[C@H](C)[C@@H](O[C@@H]2O[C@H](C)C[C@H](N(C)C)[C@H]2O)[C@](C)(OC)C[C@@H](C)C(=O)[C@H](C)[C@H]2NC(=O)O[C@@]21C [95c] ) reads 0.5

Field MIC (entry CC[C@H]1OC(=O)[C@H](C)C(=O)[C@H](C)[C@@H](O[C@@H]2O[C@H](C)C[C@H](N(C)C)[C@H]2O)[C@](C)(OC)C[C@@H](C)C(=O)[C@H](C)[C@H]2N(CCCCn3cnc(-c4cccnc4)c3)C(=O)O[C@]12C [telithromycin, reference compound] ) reads 0.25

Field MIC (entry CC[C@H]1OC(=O)[C@H](C)[C@@H](O[C@H]2C[C@@](C)(OC)[C@@H](O)[C@H](C)O2)[C@H](C)[C@@H](O[C@@H]2O[C@H](C)C[C@H](N(C)C)[C@H]2O)[C@](C)(OC)C[C@@H](C)C(=O)[C@H](C)[C@@H](O)[C@]1(C)O [clarithromycin, reference compound] ) reads 0.25

Field MIC (entry CC[C@H]1OC(=O)[C@H](C)[C@@H](OC(=O)NCCCCCCC#Cc2ccc3c(=O)c(C(=O)O)cn(C)c3c2)[C@H](C)[C@@H](O[C@@H]2O[C@H](C)C[C@H](N(C)C)[C@H]2O)[C@](C)(O)C[C@@H](C)CN(C)[C@H](C)[C@@H](O)[C@]1(C)O [106g] ) reads 0.5

* * *

- System: S. pyogenes
- PROTOCOL: MIC, broth microdilution
- Type: cell-based, Streptococcus pyogenes
- CONDITION: Streptococcus pyogenes, S. pyogenes 01-968, i-ermTR (Table S5); read-out: MIC
MEASURED_ATTRIBUTE: MIC (µg/mL)
Give your result in µg/mL as a bare value.

COMPOUND	TEST_TARGET	MIC [µg/mL]
CC[C@H]1OC(=O)[C@H](C)[C@@H](OC(=O)NCCCCCCC#Cc2ccc3c(=O)c4c(O)cc(O)cc4oc3c2)[C@H](C)[C@@H](O[C@@H]2O[C@H](C)C[C@H](N(C)C)[C@H]2O)[C@](C)(OC)C[C@@H](C)C(=O)[C@H](C)[C@H]2NC(=O)O[C@@]21C [88m]	S. pyogenes	16
CC[C@H]1OC(=O)[C@@](C)(F)C(=O)[C@H](C)[C@@H](O[C@@H]2O[C@H](C)C[C@H](N(C)C)[C@H]2O)[C@](C)(OC)C[C@@H](C)C(=O)[C@H](C)[C@H]2N(CCCCn3cc(-c4cccc(N)c4)nn3)C(=O)O[C@]12C	S. pyogenes	0.016
CC[C@H]1OC(=O)[C@H](C)[C@@H](O[C@H]2C[C@@](C)(OC)[C@@H](O)[C@H](C)O2)[C@H](C)[C@@H](O[C@@H]2O[C@H](C)C[C@H](N(C)C)[C@H]2O)[C@](C)(OC)C[C@@H](C)C(=O)[C@H](C)[C@@H](O)[C@]1(C)O [clarithromycin, reference compound]	S. pyogenes	4

Field MIC (entry CC[C@H]1OC(=O)[C@H](C)[C@@H](OC(=O)NCCCCCCC#Cc2ccc3c(=O)n(CC(=O)O)cnc3c2)[C@H](C)[C@@H](O[C@@H]2O[C@H](C)C[C@H](N(C)C)[C@H]2O)[C@](C)(OC)C[C@@H](C)C(=O)[C@H](C)[C@H]2NC(=O)O[C@@]21C [88l] ) reads 8

* * *

- Tested on: S. pyogenes
- PROTOCOL: MIC, broth microdilution
- Format: cell-based, Streptococcus pyogenes
- CONDITION: Streptococcus pyogenes, S. pyogenes 12-206, c-ermB (Table S5); read-out: MIC
MEASURED_ATTRIBUTE: MIC (µg/mL)
Give your result in µg/mL as a bare value.

Worked set:
MOLECULE	TEST_TARGET	MEASURED_ATTRIBUTE	ASSAY_VALUE
CC[C@H]1OC(=O)[C@H](C)[C@@H](OC(=O)NCCCCCCC#Cc2ccc3c(=O)c4c(O)cc(O)cc4oc3c2)[C@H](C)[C@@H](O[C@@H]2O[C@H](C)C[C@H](N(C)C)[C@H]2O)[C@](C)(OC)C[C@@H](C)C(=O)[C@H](C)[C@H]2NC(=O)O[C@@]21C [88m]	S. pyogenes	MIC	32
CC[C@H]1OC(=O)[C@H](C)[C@@H](OC(=O)NCCCCCCC#Cc2ccc3c(=O)c(C(=O)O)cn(C)c3c2)[C@H](C)[C@@H](O[C@@H]2O[C@H](C)C[C@H](N(C)C)[C@H]2O)[C@](C)(OC)C[C@@H](C)C(=O)[C@H](C)[C@H]2NC(=O)O[C@@]21C	S. pyogenes	MIC	0.12

Field MIC (entry CC[C@H]1OC(=O)[C@@](C)(F)C(=O)[C@H](C)[C@@H](O[C@@H]2O[C@H](C)C[C@H](N(C)C)[C@H]2O)[C@](C)(OC)C[C@@H](C)C(=O)[C@H](C)[C@H]2N(CCCCn3cc(-c4cccc(N)c4)nn3)C(=O)O[C@]12C ) reads 0.03

Field MIC (entry CC[C@H]1OC(=O)[C@H](C)[C@@H](OC(=O)NCCCCCCC#Cc2ccc3c(=O)n(CC(=O)O)cnc3c2)[C@H](C)[C@@H](O[C@@H]2O[C@H](C)C[C@H](N(C)C)[C@H]2O)[C@](C)(OC)C[C@@H](C)C(=O)[C@H](C)[C@H]2NC(=O)O[C@@]21C [88l] ) reads 256
